tested on: HepG2; experiment: Antiproliferative activity against human HepG2 at 50 ug/ml after 48 hrs by MTT assay; type: functional; settings: HepG2, 48 h
Listing: inhibition at 50 µg/mL of selected molecules

molecule: CCOP(=O)(OCC)C(Nn1c(C)nc2sc(CC)cc2c1=O)c1ccc([N+](=O)[O-])cc1 (stereo not given)
inhibition at 50 µg/mL [%]: 61.1
//
molecule: CCc1cc2c(=O)n(/N=C/c3ccccc3)c(C)nc2s1
inhibition at 50 µg/mL [%]: 57
//
molecule: CCc1cc2c(=O)n(NC(c3ccc([N+](=O)[O-])cc3)P(=O)(OC(C)C)OC(C)C)c(C)nc2s1 (stereo not given)
inhibition at 50 µg/mL [%]: 58.1
//
molecule: CCc1cc2c(=O)n(NC(c3cccc([N+](=O)[O-])c3)P(=O)(OC(C)C)OC(C)C)c(C)nc2s1 (stereo not given)
inhibition at 50 µg/mL [%]: 90.8
//
molecule: CCOP(=O)(OCC)C(Nn1c(C)nc2sc(CC)cc2c1=O)c1ccccc1 (stereo not given)
inhibition at 50 µg/mL [%]: 66

====

Target chain: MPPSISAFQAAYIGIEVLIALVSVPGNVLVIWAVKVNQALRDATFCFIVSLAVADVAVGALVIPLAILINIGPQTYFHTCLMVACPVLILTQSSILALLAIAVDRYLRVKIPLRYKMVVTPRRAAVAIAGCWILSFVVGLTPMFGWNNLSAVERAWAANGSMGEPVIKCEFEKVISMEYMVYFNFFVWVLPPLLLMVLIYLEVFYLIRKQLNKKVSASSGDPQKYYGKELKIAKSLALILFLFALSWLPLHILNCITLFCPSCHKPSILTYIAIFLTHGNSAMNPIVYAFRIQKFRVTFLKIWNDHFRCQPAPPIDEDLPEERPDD

smilesStructure: Cc1sc2nc(NC(=O)c3ccccc3)[nH]c(=O)c2c1C
Ki: > 30 µM

====

system: MCF7; experiment: Antiproliferative activity against human MCF7 by MTT assay; assay type: functional, cell-based

smilesStructure: COc1ccccc1CNc1nc(C(F)(F)F)nc2sc3c(c12)CCC3
studyTarget: MCF7
unitSymbol: µM
resultModifier: >
IC50: 100
//
smilesStructure: FC(F)(F)c1nc(NCc2ccc(Cl)cc2)c2c3c(sc2n1)CCC3
studyTarget: MCF7
unitSymbol: µM
resultModifier: =
IC50: 13.8
//
smilesStructure: Cc1ccccc1CNc1nc(C(F)(F)F)nc2sc3c(c12)CCC3
studyTarget: MCF7
unitSymbol: µM
resultModifier: =
IC50: 83.6
//
smilesStructure: Fc1cccc(CNc2nc(C(F)(F)F)nc3sc4c(c23)CCC4)c1
studyTarget: MCF7
unitSymbol: µM
resultModifier: =
IC50: 5.18
//
smilesStructure: FC(F)(F)c1nc(NCc2ccccc2)c2c3c(sc2n1)CCC3
studyTarget: MCF7
unitSymbol: µM
resultModifier: =
IC50: 11.8

====

tested on: ECa-109 cell line; assay: Antiproliferative activity against human EC109 at 50 ug/ml after 48 hrs by MTT assay; assay type: functional; conditions: ECa-109, 48 h
Measured inhibition at 50 µg/mL values are reported for all entries that follow.
outcomeMeasure: inhibition at 50 µg/mL

compound: CCc1cc2c(=O)n(NC(c3ccc([N+](=O)[O-])cc3)P(=O)(OC(C)C)OC(C)C)c(C)nc2s1 (stereo not drawn)
studyTarget: ECa-109 cell line
outcomeMeasure: inhibition at 50 µg/mL
reportedResult: 58.5%
--
compound: CCOP(=O)(OCC)C(Nn1c(C)nc2sc(CC)cc2c1=O)c1ccc([N+](=O)[O-])cc1 (stereo not drawn)
studyTarget: ECa-109 cell line
outcomeMeasure: inhibition at 50 µg/mL
reportedResult: 54%
--
compound: CCc1cc2c(=O)n(NC(c3cccc([N+](=O)[O-])c3)P(=O)(OC(C)C)OC(C)C)c(C)nc2s1 (stereo not drawn)
studyTarget: ECa-109 cell line
outcomeMeasure: inhibition at 50 µg/mL
reportedResult: 45.3%

Where these numbers come from: ChEMBL document CHEMBL4342407
